Target: DNA topoisomerase 1 (Homo sapiens) (UniProt P11387)
Sequence (P11387 whole entry): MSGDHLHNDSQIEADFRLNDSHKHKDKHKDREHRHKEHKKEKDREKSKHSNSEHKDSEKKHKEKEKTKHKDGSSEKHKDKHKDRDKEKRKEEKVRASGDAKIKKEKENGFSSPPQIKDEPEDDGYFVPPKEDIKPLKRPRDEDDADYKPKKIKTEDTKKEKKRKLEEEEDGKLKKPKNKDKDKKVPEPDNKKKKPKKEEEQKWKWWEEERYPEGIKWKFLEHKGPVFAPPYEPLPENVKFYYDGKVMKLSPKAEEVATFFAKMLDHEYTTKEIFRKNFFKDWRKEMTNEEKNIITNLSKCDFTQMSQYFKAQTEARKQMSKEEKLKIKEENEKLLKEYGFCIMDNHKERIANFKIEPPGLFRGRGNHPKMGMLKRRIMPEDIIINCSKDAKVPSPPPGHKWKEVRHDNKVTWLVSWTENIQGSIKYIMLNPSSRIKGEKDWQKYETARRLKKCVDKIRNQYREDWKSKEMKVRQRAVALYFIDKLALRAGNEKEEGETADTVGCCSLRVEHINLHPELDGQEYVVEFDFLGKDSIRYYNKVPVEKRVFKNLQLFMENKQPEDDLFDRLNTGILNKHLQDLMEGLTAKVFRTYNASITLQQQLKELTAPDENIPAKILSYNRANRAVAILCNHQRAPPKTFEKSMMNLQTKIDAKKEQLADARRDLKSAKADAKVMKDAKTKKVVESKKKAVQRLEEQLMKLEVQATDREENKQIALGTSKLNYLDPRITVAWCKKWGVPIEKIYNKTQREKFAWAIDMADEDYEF
Assay: Inhibition of recombinant human TOPO1 assessed as TOP1-DNA cleavage complexes at 1 uM using 3'-[32-P]-117 labeled bp DNA as substrate incubated for 30 mins by SDS-PAGE analysis relative to control
value_kind: inhibition (%)
Numeric answer only, unit % assumed.

IN: inhibition for `COc1cc2nc(-c3ccc(Cl)cc3)cc(OCCCN3CCCCC3)c2cc1OC` ?
OUT: 20

IN: inhibition for `COc1cc2nc(-c3ccc(Cl)cc3)cc(OCCCN3CCCC3)c2cc1OC` ?
OUT: 20

IN: inhibition for `COc1cc2nc(-c3ccc(C(F)(F)F)cc3)cc(OCCCN3CCOCC3)c2cc1OC` ?
OUT: 50

IN: inhibition for `COc1cc2nc(-c3ccc(Cl)cc3)cc(OCCCN3CCOCC3)c2cc1OC` ?
OUT: 50

IN: inhibition for `COc1cc2nc(-c3ccc(C(F)(F)F)cc3)cc(OCCCN3CCC(O)CC3)c2cc1OC` ?
OUT: 0

IN: inhibition for `COc1cc2nc(-c3ccc(C(F)(F)F)cc3)cc(OCCCN3CCCC3)c2cc1OC` ?
OUT: 0

IN: inhibition for `COc1cc2nc(-c3ccc(Cl)cc3)cc(OCCCN3CCC(O)CC3)c2cc1OC` ?
OUT: 20

IN: inhibition for `COc1cc2nc(-c3ccc(C(F)(F)F)cc3)cc(OCCCN3CCCCC3)c2cc1OC` ?
OUT: 20
